tested.on: Hepatocyte Growth Factor (HGF), human (human, UniProt P14210 32-728)
Sequence (P14210 32-728): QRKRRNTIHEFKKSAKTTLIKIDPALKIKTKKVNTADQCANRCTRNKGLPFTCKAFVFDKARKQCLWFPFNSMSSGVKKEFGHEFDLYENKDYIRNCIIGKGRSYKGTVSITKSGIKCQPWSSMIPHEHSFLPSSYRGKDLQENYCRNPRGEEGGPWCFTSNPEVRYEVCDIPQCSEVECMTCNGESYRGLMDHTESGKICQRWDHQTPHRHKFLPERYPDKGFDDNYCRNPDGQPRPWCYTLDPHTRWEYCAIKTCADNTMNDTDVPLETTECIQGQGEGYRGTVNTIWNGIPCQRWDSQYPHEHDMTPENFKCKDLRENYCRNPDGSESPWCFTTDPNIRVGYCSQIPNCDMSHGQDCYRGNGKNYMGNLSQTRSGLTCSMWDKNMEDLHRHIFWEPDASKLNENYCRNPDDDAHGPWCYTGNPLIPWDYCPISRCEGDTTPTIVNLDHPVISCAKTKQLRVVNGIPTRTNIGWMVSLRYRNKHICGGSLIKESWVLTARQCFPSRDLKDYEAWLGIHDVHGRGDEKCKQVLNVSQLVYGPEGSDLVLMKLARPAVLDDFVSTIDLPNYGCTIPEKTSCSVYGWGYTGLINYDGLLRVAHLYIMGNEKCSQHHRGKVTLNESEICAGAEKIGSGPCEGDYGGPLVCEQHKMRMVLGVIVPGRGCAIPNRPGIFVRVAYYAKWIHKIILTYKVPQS
protocol: ELISA
quantity.name: EC50 (nM)
Hi! Could you send only the number? It should be in nM, unit omitted.

Qu. Value lookup for EC50; key = HC 9/SLC 9 (antibody) chain 1: GQGTLVTVSSASTKGPSVFQPVLHQPPAMSSALGTTIRLTCTLRNDHDIGVYSVYWYQQRPGHPPRFLLRYFSQSDKSQGPQVPPRFSGSKDVARNRGYLSISELQPEDEAMYYCAMGARSRCWPRGFQSKHNSVTHVFGSGTQLTVLSQPKATPSVTLFPPSSEELQANKATLVCLMNDFYPGILTVTWKADGTPITQGVEMTTPSKQSNNKYAASSYLSLTPEQWRSRRSYSCQVMHEGSTVEKTVAPAECS chain 2: MSWAPVLLMLFVYCTGCGPQPVLHQPPAMSSALGTTIRLTCTLRNDHDIGVYSVYWYQQRPGHPPRFLLRYFSQSDKSQGPQVPPRFSGSKDVARNRGYLSISVTHVFGSGTQLTVLSQPKATPSVQVQLVQ
Ans. 0.058

Origin of measurements: patent US20150045540A1
